The measured values listed here are drawn from paper PMC6282620.

target: Plasmodium falciparum Hsp70‐x (full length) (Plasmodium falciparum); assay: SPR; PfHsp70‐x or PfHsp70‐xT immobilised on ProteOn GLC chips, peptides as analytes at 1.25-20 nM, 25°C, PBS‐Tween pH 7.4, no nucleotide
Please go through the items and note down their Kd.
The figure you give is taken to be in nM; do not add the unit.

query: Look at this binder and give its reported Kd. ANNNMYRR [peptide ANNNMYRR]
result: 2.21

query: Look at this binder and give its reported Kd. NRNNTG [peptide NRNNTG]
result: 6.91

query: Look at this binder and give its reported Kd. ALLLMYRR [peptide ALLLMYRR]
result: 1470

query: Look at this binder and give its reported Kd. NRLLTG [peptide NRLLTG]
result: 250
